- METHOD: solubility of the first organic compound in water
VALUE_KIND: solubility

The following molecules have reported results that may help.
{"columns": ["CHEMICAL_SMILES", "RESULT"],
 "data": [
  ["c1ccc2c(c1)-c1ccccc1C21c2ccccc2-c2ccc(N3CCCN4CCCN=C43)cc21", "18 to 22 µg/mL"],
  ["c1ccc2c(c1)-c1ccccc1C21c2cc(N3CCCN4CCCN=C43)ccc2-c2ccc(N3CCCN4CCCN=C43)cc21", "230 to 390 µg/mL"]
]}

Prompt: Given the entry CC(C)(C)c1ccc2c(c1)C1(c3ccccc3-c3ccc(N4CCCN5CCCN=C54)cc31)c1cc(C(C)(C)C)ccc1-2 , report its measured solubility.
Completion: < 2.3 µg/mL
